tested on: HeLa Kyoto; test: solubility in G1/S (NP-40 vs SDS abundance) (log2 ratio); higher = more soluble; settings: cell cycle stage: G1/S
Could you please report measured solubility in G1/S (log2) for the items listed next?
Simply state the number, no unit and no words.

Exercise: Consider the substance MSLEQEEETQPGRLLGRRDAVPAFIEPNVRFWITERQSFIRRFLQWTELLDPTNVFISVESIENSRQLLCTNEDVSSPASADQRIQEAWKRSLATVHPDSSNLIPKLFRPAAFLPFMAPTVFLSMTPLKGIKSVILPQVFLCAYMAAFNSINGNRSYTCKPLERSLLMAGAVASSTFLGVIPQFVQMKYGLTGPWIKRLLPVIFLVQASGMNVYMSRSLESIKGIAVMDKEGNVLGHSRIAGTKAVRETLASRIVLFGTSALIPEVFTYFFKRTQYFRKNPGSLWILKLSCTVLAMGLMVPFSFSIFPQIGQIQYCSLEEKIQSPTEETEIFYHRGV [SFXN4] and give its measured solubility in G1/S (log2).
Solution: -0.194

Exercise: Consider the substance MVKLAAKCILAGDPAVGKTALAQIFRSDGAHFQKSYTLTTGMDLVVKTVPVPDTGDSVELFIFDSAGKELFSEMLDKLWESPNVLCLVYDVTNEESFNNCSKWLEKARSQAPGISLPGVLVGNKTDLAGRRAVDSAEARAWALGQGLECFETSVKEMENFEAPFHCLAKQFHQLYREKVEVFRALA [IFT27] and give its measured solubility in G1/S (log2).
Solution: 0.371

Exercise: Consider the substance SMARCA2 and give its measured solubility in G1/S (log2).
Solution: -0.129

---

system: HeLa Kyoto; test: solubility in G1/S (NP-40 vs SDS abundance) (log2 ratio); higher = more soluble; details: cell cycle stage: G1/S
measured.endpoint: solubility in G1/S (log2)
Simply state the number, no unit and no words.

Exercise: Consider the substance MASPGCLLCVLGLLLCGAASLELSRPHGDTAKKPIIGILMQKCRNKVMKNYGRYYIAASYVKYLESAGARVVPVRLDLTEKDYEILFKSINGILFPGGSVDLRRSDYAKVAKIFYNLSIQSFDDGDYFPVWGTCLGFEELSLLISGECLLTATDTVDVAMPLNFTGGQLHSRMFQNFPTELLLSLAVEPLTANFHKWSLSVKNFTMNEKLKKFFNVLTTNTDGKIEFISTMEGYKYPVYGVQWHPEKAPYEWKNLDGISHAPNAVKTAFYLAEFFVNEARKNNHHFKSESEEEKALIYQFSPIYTGNISSFQQCYIFD [GGH] and give its measured solubility in G1/S (log2).
Solution: 0.326

Exercise: Consider the substance MELFLAGRRVLVTGAGKGIGRGTVQALHATGARVVAVSRTQADLDSLVRECPGIEPVCVDLGDWEATERALGSVGPVDLLVNNAAVALLQPFLEVTKEAFDRSFEVNLRAVIQVSQIVARGLIARGVPGAIVNVSSQCSQRAVTNHSVYCSTKGALDMLTKVMALELGPHKIRVNAVNPTVVMTSMGQATWSDPHKAKTMLNRIPLGKFAEVEHVVNAILFLLSDRSGMTTGSTLPVEGGFWAC [DCXR] and give its measured solubility in G1/S (log2).
Solution: 0.282

Exercise: Consider the substance MAASTASHRPIKGILKNKTSTTSSMVASAEQPRGNVDEELSKKSQKWDEMNILATYHPADKDYGLMKIDEPSTPYHSMMGDDEDACSDTEATEAMAPDILARKLAAAEGLEPKYRIQEQESSGEEDSDLSPEEREKKRQFEMKRKLHYNEGLNIKLARQLISKDLHDDDEDEEMLETADGESMNTEESNQGSTPSDQQQNKLRSS [PPP1R2] and give its measured solubility in G1/S (log2).
Solution: 0.172

Exercise: Consider the substance HNRNPK and give its measured solubility in G1/S (log2).
Solution: 0.317

Exercise: Consider the substance MLGMIKNSLFGSVETWPWQVLSKGDKEEVAYEERACEGGKFATVEVTDKPVDEALREAMPKVAKYAGGTNDKGIGMGMTVPISFAVFPNEDGSLQKKLKVWFRIPNQFQSDPPAPSDKSVKIEEREGITVYSMQFGGYAKEADYVAQATRLRAALEGTATYRGDIYFCTGYDPPMKPYGRRNEIWLLKT [HEBP1] and give its measured solubility in G1/S (log2).
Solution: 0.27

Exercise: Consider the substance MAEPFLSEYQHQPQTSNCTGAAAVQEELNPERPPGAEERVPEEDSRWQSRAFPQLGGRPGPEGEGSLESQPPPLQTQACPESSCLREGEKGQNGDDSSAGGDFPPPAEVEPTPEAELLAQPCHDSEASKLGAPAAGGEEEWGQQQRQLGKKKHRRRPSKKKRHWKPYYKLTWEEKKKFDEKQSLRASRIRAEMFAKGQPVAPYNTTQFLMDDHDQEEPDLKTGLYSKRAAAKSDDTSDDDFMEEGGEEDGGSDGMGGDGSEFLQRDFSETYERYHTESLQNMSKQELIKEYLELEKCLSRMEDENNRLRLESKRLGGDDARVRELELELDRLRAENLQLLTENELHRQQERAPLSKFGD [HEXIM1] and give its measured solubility in G1/S (log2).
Solution: 0.211

---

system: HeLa Kyoto; experiment: solubility change mitosis vs G1/S (difference of NP-40 vs SDS log2 ratios) (log2 ratio difference); higher = more soluble in mitosis
measured.endpoint: solubility change mitosis (log2)

Exercise: Consider the sequence MAKAYDHLFKLLLIGDSGVGKTCLIIRFAEDNFNNTYISTIGIDFKIRTVDIEGKKIKLQVWDTAGQERFKTITTAYYRGAMGIILVYDITDEKSFENIQNWMKSIKENASAGVERLLLGNKCDMEAKRKVQKEQADKLAREHGIRFFETSAKSSMNVDEAFSSLARDILLKSGGRRSGNGNKPPSTDLKTCDKKNTNKCSLG [RAB13] and give its measured solubility change mitosis (log2).
Solution: -0.198

Exercise: Consider the sequence MDTPPLSDSESESDESLVTDRELQDAFSRGLLKPGLNVVLEGPKKAVNDVNGLKQCLAEFKRDLEWVERLDVTLGPVPEIGGSEAPAPQNKDQKAVDPEDDFQREMSFYRQAQAAVLAVLPRLHQLKVPTKRPTDYFAEMAKSDLQMQKIRQKLQTKQAAMERSEKAKQLRALRKYGKKVQTEVLQKRQQEKAHMMNAIKKYQKGFSDKLDFLEGDQKPLAQRKKAGAKGQQMRKGPSAKRRYKNQKFGFGGKKKGSKWNTRESYDDVSSFRAKTAHGRGLKRPGKKGSNKRPGKRTREKMKNRTH [EBNA1BP2] and give its measured solubility change mitosis (log2).
Solution: 1.38

---

test system: HeLa Kyoto; assay: thermal stability score vs G1/S (z-score of summed log2 fold changes over temperatures); higher = more thermally stable than in G1/S; details: cell cycle stage: mitosis
So basically every entry gets a class from its thermal stability score, ranges being small value: < -2; mid value: ≥ -2 and < -0.7; large value: ≥ -0.7

Exercise: Entry MAEFPSKVSTRTSSPAQGAEASVSALRPDLGFVRSRLGALMLLQLVLGLLVWALIADTPYHLYPAYGWVMFVAVFLWLVTIVLFNLYLFQLHMKLYMVPWPLVLMIFNISATVLYITAFIACSAAVDLTSLRGTRPYNQRAAASFFACLVMIAYGVSAFFSYQAWRGVGSNAATSQMAGGYA [PLLP] belongs to which category?
Solution: small value

Exercise: Entry MAPSLWKGLVGIGLFALAHAAFSAAQHRSYMRLTEKEDESLPIDIVLQTLLAFAVTCYGIVHIAGEFKDMDATSELKNKTFDTLRNHPSFYVFNHRGRVLFRPSDTANSSNQDALSSNTSLKLRKLESLRR [MMGT1] belongs to which category?
Solution: mid value

Exercise: Entry MAGSYPEGAPAVLADKRQQFGSRFLRDPARVFHHNAWDNVEWSEEQAAAAERKVQENSIQRVCQEKQVDYEINAHKYWNDFYKIHENGFFKDRHWLFTEFPELAPSQNQNHLKDWFLENKSEVPECRNNEDGPGLIMEEQHKCSSKSLEHKTQTLPVEENVTQKISDLEICADEFPGSSATYRILEVGCGVGNTVFPILQTNNDPGLFVYCCDFSSTAIELVQTNSEYDPSRCFAFVHDLCDEEKSYPVPKGSLDIIILIFVLSAIVPDKMQKAINRLSRLLKPGGMMLLRDYGRYDMAQLRFKKGQCLSGNFYVRGDGTRVYFFTQEELDTLFTTAGLEKVQNLVDRRLQVNRGKQLTMYRVWIQCKYCKPLLSSTS [METTL2A] belongs to which category?
Solution: large value

Exercise: Entry MGPLPRTVELFYDVLSPYSWLGFEILCRYQNIWNINLQLRPSLITGIMKDSGNKPPGLLPRKGLYMANDLKLLRHHLQIPIHFPKDFLSVMLEKGSLSAMRFLTAVNLEHPEMLEKASRELWMRVWSRNEDITEPQSILAAAEKAGMSAEQAQGLLEKIATPKVKNQLKETTEAACRYGAFGLPITVAHVDGQTHMLFGSDRMELLAHLLGEKWMGPIPPAVNARL [GSTK1] belongs to which category?
Solution: mid value

Exercise: Entry MAAVSVYAPPVGGFSFDNCRRNAVLEADFAKRGYKLPKVRKTGTTIAGVVYKDGIVLGADTRATEGMVVADKNCSKIHFISPNIYCCGAGTAADTDMTTQLISSNLELHSLSTGRLPRVVTANRMLKQMLFRYQGYIGAALVLGGVDVTGPHLYSIYPHGSTDKLPYVTMGSGSLAAMAVFEDKFRPDMEEEEAKNLVSEAIAAGIFNDLGSGSNIDLCVISKNKLDFLRPYTVPNKKGTRLGRYRCEKGTTAVLTEKITPLEIEVLEETVQTMDTS [PSMB7] belongs to which category?
Solution: small value

Exercise: Entry MGRSRSRSPRRERRRSRSTSRERERRRRERSRSRERDRRRSRSRSPHRRRSRSPRRHRSTSPSPSRLKERRDEEKKETKETKSKERQITEEDLEGKTEEEIEMMKLMGFASFDSTKGKKVDGSVNAYAINVSQKRKYRQYMNRKGGFNRPLDFIA [SNRNP27] belongs to which category?
Solution: large value

Exercise: Entry MAQQQMTSSQKALMLELKSLQEEPVEGFRITLVDESDLYNWEVAIFGPPNTLYEGGYFKAHIKFPIDYPYSPPTFRFLTKMWHPNIYENGDVCISILHPPVDDPQSGELPSERWNPTQNVRTILLSVISLLNEPNTFSPANVDASVMFRKWRDSKGKDKEYAEIIRKQVSATKAEAEKDGVKVPTTLAEYCIKTKVPSNDNSSDLLYDDLYDDDIDDEDEEEEDADCYDDDDSGNEES [UBE2R2] belongs to which category?
Solution: mid value

Exercise: Entry MMPSRTNLATGIPSSKVKYSRLSSTDDGYIDLQFKKTPPKIPYKAIALATVLFLIGAFLIIIGSLLLSGYISKGGADRAVPVLIIGILVFLPGFYHLRIAYYASKGYRGYSYDDIPDFDD [TMEM230] belongs to which category?
Solution: small value

Exercise: Entry MLPLSLLKTAQNHPMLVELKNGETYNGHLVSCDNWMNINLREVICTSRDGDKFWRMPECYIRGSTIKYLRIPDEIIDMVKEEVVAKGRGRGGLQQQKQQKGRGMGGAGRGVFGGRGRGGIPGTGRGQPEKKPGRQAGKQ [LSM4] belongs to which category?
Solution: small value

Exercise: Entry MAGKAHRLSAEERDQLLPNLRAVGWNELEGRDAIFKQFHFKDFNRAFGFMTRVALQAEKLDHHPEWFNVYNKVHITLSTHECAGLSERDINLASFIEQVAVSMT [PCBD1] belongs to which category?
Solution: mid value

Exercise: Entry MEAQAQGLLETEPLQGTDEDAVASADFSSMLSEEEKEELKAELVQLEDEITTLRQVLSAKERHLVEIKQKLGMNLMNELKQNFSKSWHDMQTTTAYKKTHETLSHAGQKATAAFSNVGTAISKKFGDMSYSIRHSISMPAMRNSPTFKSFEERVETTVTSLKTKVGGTNPNGGSFEEVLSSTAHASAQSLAGGSRRTKEEELQC [TPD52L1] belongs to which category?
Solution: small value

Exercise: Entry MAAPSGGVNCEEFAEFQELLKVMRTIDDRIVHELNTTVPTASFAGKIDASQTCKQLYESLMAAHASRDRVIKNCIAQTSAVVKNLREEREKNLDDLTLLKQLRKEQTKLKWMQSELNVEEVVNDRSWKVFNERCRIHFKPPKNE [CCDC58] belongs to which category?
Solution: large value

Exercise: Entry MSLEQRSLHCKPEEALEAQQEALGLVCVQAATSSSSPLVLGTLEEVPTAGSTDPPQSPQGASAFPTTINFTRQRQPSEGSSSREEEGPSTSCILESLFRAVITKKVADLVGFLLLKYRAREPVTKAEMLESVIKNYKHCFPEIFGKASESLQLVFGIDVKEADPTGHSYVLVTCLGLSYDGLLGDNQIMPKTGFLIIVLVMIAMEGGHAPEEEIWEELSVMEVYDGREHSAYGEPRKLLTQDLVQEKYLEYRQVPDSDPARYEFLWGPRALAETSYVKVLEYVIKVSARVRFFFPSLREAALREEEEGV [MAGEA1] belongs to which category?
Solution: large value
